# TEST SYSTEM: Klenow fragment exo− polymerase (Escherichia coli, UniProt P00582, D355A/E357A)
# Construct: Klenow fragment of DNA polymerase I 3′-exonuclease deficient variant, Kf exo^−; purchased New England BioLabs
# Sequence (P00582 324-928 D355A/E357A): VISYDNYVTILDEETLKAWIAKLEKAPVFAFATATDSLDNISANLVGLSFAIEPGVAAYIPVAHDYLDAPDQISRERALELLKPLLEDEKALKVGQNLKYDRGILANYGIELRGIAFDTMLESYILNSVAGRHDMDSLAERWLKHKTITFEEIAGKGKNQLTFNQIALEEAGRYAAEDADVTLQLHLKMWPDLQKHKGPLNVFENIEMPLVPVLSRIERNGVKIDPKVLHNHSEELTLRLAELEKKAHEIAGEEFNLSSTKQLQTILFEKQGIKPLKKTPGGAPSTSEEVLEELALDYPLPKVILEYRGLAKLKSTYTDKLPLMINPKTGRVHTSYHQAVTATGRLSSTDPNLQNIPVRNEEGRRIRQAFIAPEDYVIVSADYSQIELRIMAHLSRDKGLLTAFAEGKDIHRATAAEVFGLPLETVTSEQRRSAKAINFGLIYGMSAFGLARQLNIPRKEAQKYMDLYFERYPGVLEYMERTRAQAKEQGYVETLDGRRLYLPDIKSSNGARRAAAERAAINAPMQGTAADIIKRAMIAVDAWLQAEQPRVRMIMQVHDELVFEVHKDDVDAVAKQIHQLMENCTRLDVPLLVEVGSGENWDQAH
# Assay type: biochemical, E. coli
# MEASUREMENT PARAMETERS: Kf exo−, 37° C., single nucleotide incorporation, mean ± SD of three
MEASUREMENT TYPE: kcat (s⁻¹)
// note: answer is a bare numeric in s⁻¹

GET /values?readout=kcat&item= Nc1nc2c(ncn2[C@H]2C[C@H](O)[C@@H](COP(=O)(O)OP(=O)(O)OP(=O)(O)O)O2)c(=O)[nH]1 [dGTP, reference compound]
0.257

Next entry: Nc1ccn([C@H]2C[C@H](O)[C@@H](COP(=O)(O)OP(=O)(O)OP(=O)(O)OP(=O)(O)OC[C@H]3O[C@@H](n4cnc5c(N)ncnc54)[C@H](O)[C@@H]3O)O2)c(=O)n1
0.215

Here is the next compound: Nc1nc2c(ncn2[C@H]2C[C@H](O)[C@@H](COP(=O)(O)OP(=O)(O)OP(=O)(O)OP(=O)(O)OC[C@H]3O[C@@H](n4cnc5c(N)ncnc54)[C@H](O)[C@@H]3O)O2)c(=O)[nH]1
0.118

Similarly, Nc1ncnc2c1ncn2[C@@H]1O[C@H](COP(=O)(O)OP(=O)(O)OP(=O)(O)OP(=O)(O)OC[C@H]2O[C@@H](n3cnc4c(N)ncnc43)C[C@@H]2O)[C@@H](O)[C@H]1O ?
0.118

Another: Nc1ccn([C@H]2C[C@H](O)[C@@H](COP(=O)(O)OP(=O)(O)OP(=O)(O)O)O2)c(=O)n1 [dCTP, reference compound]
0.233

How about Nc1ncnc2c1ncn2[C@H]1C[C@H](O)[C@@H](COP(=O)(O)OP(=O)(O)OP(=O)(O)O)O1 [dATP, reference compound] ?
0.143

How about this compound: Cc1cn([C@H]2C[C@H](O)[C@@H](COP(=O)(O)OP(=O)(O)OP(=O)(O)OP(=O)(O)OC[C@H]3O[C@@H](n4cnc5c(N)ncnc54)[C@H](O)[C@@H]3O)O2)c(=O)[nH]c1=O
0.0617

Next entry: Cc1cn([C@H]2C[C@H](O)[C@@H](COP(=O)(O)OP(=O)(O)OP(=O)(O)O)O2)c(=O)[nH]c1=O [dTTP, reference compound]
0.145

====

Provide the reported log10(Km) of each item.
# TEST SYSTEM: Klenow fragment exo− polymerase (Escherichia coli, UniProt P00582, D355A/E357A)
# Construct: Klenow fragment of DNA polymerase I 3′-exonuclease deficient variant, Kf exo^−; purchased New England BioLabs
# Assay type: biochemical, E. coli
# MEASUREMENT PARAMETERS: Kf exo−, 37° C., single nucleotide incorporation, mean ± SD of three
# values: log10(Km), units nM

Entry Nc1ccn([C@H]2C[C@H](O)[C@@H](COP(=O)(O)OP(=O)(O)OP(=O)(O)O)O2)c(=O)n1 [dCTP, reference compound] has what log10(Km)?
1.85

Also Nc1ncnc2c1ncn2[C@@H]1O[C@H](COP(=O)(O)OP(=O)(O)OP(=O)(O)OP(=O)(O)OC[C@H]2O[C@@H](n3cnc4c(N)ncnc43)C[C@@H]2O)[C@@H](O)[C@H]1O [dAppppA] ?
3.11

For Nc1ncnc2c1ncn2[C@H]1C[C@H](O)[C@@H](COP(=O)(O)OP(=O)(O)OP(=O)(O)O)O1 [dATP, reference compound] then?
2.54

What do you have for Nc1ccn([C@H]2C[C@H](O)[C@@H](COP(=O)(O)OP(=O)(O)OP(=O)(O)OP(=O)(O)OC[C@H]3O[C@@H](n4cnc5c(N)ncnc54)[C@H](O)[C@@H]3O)O2)c(=O)n1 [dCppppA] ?
3.48

Okay, and Nc1nc2c(ncn2[C@H]2C[C@H](O)[C@@H](COP(=O)(O)OP(=O)(O)OP(=O)(O)O)O2)c(=O)[nH]1 [dGTP, reference compound] ?
2.04

What about Cc1cn([C@H]2C[C@H](O)[C@@H](COP(=O)(O)OP(=O)(O)OP(=O)(O)OP(=O)(O)OC[C@H]3O[C@@H](n4cnc5c(N)ncnc54)[C@H](O)[C@@H]3O)O2)c(=O)[nH]c1=O [dTppppA] ?
3.34

Repeat with Nc1nc2c(ncn2[C@H]2C[C@H](O)[C@@H](COP(=O)(O)OP(=O)(O)OP(=O)(O)OP(=O)(O)OC[C@H]3O[C@@H](n4cnc5c(N)ncnc54)[C@H](O)[C@@H]3O)O2)c(=O)[nH]1 [dGppppA]
3.54

Okay, and Cc1cn([C@H]2C[C@H](O)[C@@H](COP(=O)(O)OP(=O)(O)OP(=O)(O)O)O2)c(=O)[nH]c1=O [dTTP, reference compound] ?
2.38

Attribution: patent US20170159112A1
